- target-under-test: human TYK2 (JH2domain-pseudokinase) (Homo sapiens (Human), UniProt P29597)
- Sequence (P29597 556-888): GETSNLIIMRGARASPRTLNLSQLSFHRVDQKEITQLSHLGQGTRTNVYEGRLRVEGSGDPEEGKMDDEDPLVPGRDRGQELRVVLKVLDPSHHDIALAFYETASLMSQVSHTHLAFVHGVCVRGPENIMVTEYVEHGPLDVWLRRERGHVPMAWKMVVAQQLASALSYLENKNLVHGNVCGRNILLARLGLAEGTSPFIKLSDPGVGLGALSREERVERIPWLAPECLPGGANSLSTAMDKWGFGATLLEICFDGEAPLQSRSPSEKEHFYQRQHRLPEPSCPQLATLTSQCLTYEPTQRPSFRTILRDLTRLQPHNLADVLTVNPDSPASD
- protocol-notes: TYK2 JH2 Domain Binding Assay (KINOMEscan, DiscoveRx)
- condition-parameters: 11-point dilution, duplicate
outcome-measure: Kd

Consider the following illustrative entries.
>  <compound>
COc1c(Nc2cc(NC(=O)C3CC3)nc3[nH]c(C(F)F)nc23)cccc1-c1ncn(C)n1

>  <assay-result>
0.1 to 0.5 nM

$$$$
>  <compound>
CS(=O)(=O)c1cc(C2CCC2)ccc1Nc1cc(NC(=O)[C@@H]2C[C@@H]2F)nc2[nH]c(C(F)F)nc12

>  <assay-result>
0.1 to 0.5 nM

$$$$
>  <compound>
Cc1nc2c(Nc3ccc(C4CCC4)cc3S(C)(=O)=O)cc(NC(=O)[C@@H]3CC3(F)F)nc2[nH]1

>  <assay-result>
1 to 10 nM

$$$$
>  <compound>
COc1c(Nc2cc(Nc3ccc(N4CCCCC4)cn3)nc3[nH]cnc23)cccc1-c1ncn(C)n1

>  <assay-result>
0.5 to 1 nM

$$$$
>  <compound>
CCOc1ccc(Nc2cc(Nc3ccc(F)cc3S(C)(=O)=O)c3nc(C(F)F)[nH]c3n2)nc1C#N

>  <assay-result>
0.1 to 0.5 nM

$$$$

Respectfully, I request Kd for each entry included below.
1. COc1c(Nc2cc(NC(=O)[C@@H]3C[C@@H]3F)nc3[nH]c(C(F)F)nc23)cccc1-c1ncn(C)n1 (stereo in doubt) [I-213]
2. [2H]C([2H])([2H])N(c1ccccc1Nc1cc(Nc2cc(C)nc(C)n2)nc2[nH]c(C(F)F)nc12)S(=O)(=O)C([2H])([2H])[2H]

[out]
["0.1 to 0.5 nM", "0.1 to 0.5 nM"]

Respectfully, I request Kd for each entry included below.
1. CS(=O)(=O)c1cc([C@@H]2CCCO2)ccc1Nc1cc(NC(=O)[C@H]2CC2(F)F)nc2[nH]c(C(F)F)nc12
2. Cc1nc2c(Nc3ccccc3S(C)(=O)=O)cc(Nc3ccc4c(n3)C(F)(F)CC4)nc2[nH]1
3. COc1c(Nc2cc(NC(=O)C3CC3)nc3[nH]c(C(F)F)nc23)cccc1-c1nc(C)nn1C

[out]
["0.1 to 0.5 nM", "< 0.1 nM", "> 10 nM"]

Respectfully, I request Kd for each entry included below.
1. CN=[S@@](C)(=O)c1cc(-c2nc(COC)c(C)s2)ccc1Nc1cc(NC(=O)C2CC2)nc2[nH]c(C(F)F)nc12
2. COc1c(Nc2cc(Nc3cccc(C#N)n3)nc3[nH]c(C(F)F)nc23)cccc1-c1nc(C)cs1
3. Cc1nc2c(Nc3ccc(-c4ccc(C)o4)cc3S(C)(=O)=O)cc(NC(=O)C3CC3)nc2[nH]1
4. COc1c(Nc2cc(Nc3ccc(N4CCC4)c(C#N)n3)nc3[nH]c(C)nc23)cccc1-c1nnn(C)n1
5. Cc1nc2c(Nc3ccc(-c4cnn(C)c4)cc3N(C)S(C)(=O)=O)cc(NC(=O)C3CC3(F)F)nc2[nH]1 (stereo not drawn)
6. COC(C)c1ccc(Nc2cc(NC(=O)C3CC3)nc3[nH]c(C(F)F)nc23)c(S(C)(=O)=O)c1 (stereo not drawn)
7. Cc1nc2c(Nc3ccc(F)cc3S(C)(=O)=O)cc(Nc3ccc4c(n3)CCOC4)nc2[nH]1
8. Cc1cc(Nc2cc(Nc3ccc(-c4nc(C)c(C)s4)cc3S(C)(=O)=O)c3nc(C(F)F)[nH]c3n2)nc(C)n1

[out]
1. 1 to 10 nM
2. 1 to 10 nM
3. 0.1 to 0.5 nM
4. 0.1 to 0.5 nM
5. > 10 nM
6. 0.5 to 1 nM
7. 0.1 to 0.5 nM
8. 0.5 to 1 nM

Respectfully, I request Kd for each entry included below.
1. CP(C)(=O)c1cc(C2CC2)ccc1Nc1cc(NC(=O)C2CC2)nc2[nH]c(C(F)F)nc12
2. Cc1ncc(Nc2cc(Nc3ccc(-c4cncn4C)cc3N(C)S(C)(=O)=O)c3nc(C(F)F)[nH]c3n2)nc1C
3. Cc1cc(Nc2cc(Nc3ccc(-c4c(C)nn(C)c4C)cc3S(C)(=O)=O)c3nc(C(F)F)[nH]c3n2)nc(C)n1
4. Cc1cnc(-c2ccc(Nc3cc(Nc4cccc(C#N)n4)nc4[nH]c(C(F)F)nc34)c(S(C)(=O)=O)c2)n1C

[out]
0.1 to 0.5 nM
0.1 to 0.5 nM
0.1 to 0.5 nM
0.1 to 0.5 nM

Respectfully, I request Kd for each entry included below.
1. Cc1nc2c(Nc3ccccc3N(C)S(=O)(=O)C3CC3)cc(Nc3cccc(C#N)n3)nc2[nH]1
2. Cc1nc2c(Nc3ccc(-c4cnn(C5CC5)c4C)cc3S(C)(=O)=O)cc(NC(=O)C3CC3)nc2[nH]1
3. Cc1ccn(-c2ccc(Nc3cc(NC(=O)C4CC4)nc4[nH]c(C(F)F)nc34)c(S(C)(=O)=O)c2)n1
4. Cn1cncc1-c1ccc(Nc2cc(NC(=O)C3CC3)nc3[nH]c(C(F)F)nc23)c(S(C)(=O)=O)c1

[out]
1. 0.1 to 0.5 nM
2. < 0.1 nM
3. 0.5 to 1 nM
4. < 0.1 nM

Respectfully, I request Kd for each entry included below.
1. CC1(C)CCC(c2ccc(Nc3cc(NC(=O)C4CC4)nc4[nH]c(C(F)F)nc34)c(S(C)(=O)=O)c2)O1 (stereo not drawn)
2. COc1c(Nc2cc(NC(=O)C3CC3)nc3[nH]c(C(F)F)nc23)cccc1-c1nnn(C)c1C
3. COc1c(Nc2cc(Nc3cnc(C(C)(C)OC)c(C#N)n3)nc3[nH]c(C)nc23)cccc1-c1nnn(C)n1
4. Cc1ccn(-c2ccc(Nc3cc(NC(=O)C4CC4)nc4[nH]c(C(F)F)nc34)c(N(C)S(C)(=O)=O)c2)n1

[out]
0.1 to 0.5 nM
1 to 10 nM
0.5 to 1 nM
0.5 to 1 nM

* * *

- target-under-test: human TYK2 (JH2domain-pseudokinase) (Homo sapiens (Human), UniProt P29597)
- protocol-notes: TYK2 JH2 Domain Binding Assay (KINOMEscan, DiscoveRx)
- condition-parameters: 11-point dilution, duplicate
pKd: −log10 of the molar value.
outcome-measure: pKd

Consider the following illustrative entries.
>  <compound>
Cc1nc2c(Nc3ccc([C@@H]4CCCOC4)cc3S(C)(=O)=O)cc(NC(=O)C3CC3)nc2[nH]1 [I-255]

>  <pKd>
9.30 to 10.00

$$$$
>  <compound>
Cc1nc2c(Nc3ccc([C@@H]4CCCO4)cc3S(C)(=O)=O)cc(Nc3cccc(C#N)n3)nc2[nH]1 [I-570]

>  <pKd>
9.30 to 10.00

$$$$
>  <compound>
Cc1nc2c(Nc3ccc(-c4cnn(C)c4C)cc3N(C)S(C)(=O)=O)cc(NC(=O)C3CC3)nc2[nH]1 [I-199]

>  <pKd>
> 10.00

$$$$
>  <compound>
COc1c(Nc2cc(Nc3ccc(N4CC(O)C4)cn3)nc3[nH]c(C(F)F)nc23)cccc1-c1nnn(C)n1 [I-23]

>  <pKd>
8.00 to 9.00

$$$$
>  <compound>
Cc1cc(Nc2cc(Nc3ccc(-c4ccn(C5CC5)n4)cc3S(C)(=O)=O)c3nc(C(F)F)[nH]c3n2)nc(C)n1 [I-527]

>  <pKd>
9.30 to 10.00

$$$$
>  <compound>
Cc1cc(-c2ccc(Nc3cc(NC(=O)[C@@H]4CC4(F)F)nc4[nH]c(C(F)F)nc34)c(S(C)(=O)=O)c2)nn1C [I-313]

>  <pKd>
9.00 to 9.30

$$$$

Respectfully, I request pKd for each entry included below.
1. Cc1cnc(-c2ccc(Nc3cc(NC(=O)C4CC4)nc4[nH]c(C(F)F)nc34)c(N(C)S(C)(=O)=O)c2)n1C [I-169]
2. CS(=O)(=O)c1cc([C@H]2CCOC2)ccc1Nc1cc(NC(=O)C2CC2)nc2[nH]c(C(F)F)nc12 [I-453]
3. COc1c(Nc2cc(NC(=O)C3C[C@@H]3F)nc3[nH]c(C(F)F)nc23)cccc1-c1ncn(C)n1 (stereo in doubt) [I-374]

[out]
9.30 to 10.00
9.30 to 10.00
8.00 to 9.00

Respectfully, I request pKd for each entry included below.
1. CCS(=O)(=O)N(C)c1ccccc1Nc1cc(Nc2cccc(C#N)n2)nc2[nH]c(C)nc12 [I-181]
2. Cc1nc2c(Nc3ccc(C4CCOCC4)cc3S(C)(=O)=O)cc(NC(=O)C3CC3)nc2[nH]1 [I-226]
3. Cc1cn(C)nc1-c1ccc(Nc2cc(NC(=O)[C@@H]3C[C@@H]3F)nc3[nH]c(C(F)F)nc23)c(S(C)(=O)=O)c1 [I-406]
4. CS(=O)(=O)c1cc(C2CCOCC2)ccc1Nc1cc(NC(=O)[C@H]2CC2(F)F)nc2[nH]c(C(F)F)nc12 [I-294]
5. Cc1nc2c(Nc3ccc(Cl)cc3N(C)S(C)(=O)=O)cc(Nc3cccc(C#N)n3)nc2[nH]1 [I-134]

[out]
1: 9.30 to 10.00; 2: 9.30 to 10.00; 3: > 10.00; 4: 8.00 to 9.00; 5: 9.30 to 10.00

Field pKd (human TYK2 (JH2domain-pseudokinase) (Homo sapiens (Human), UniProt P29597)), entry COc1c(Nc2cc(Nc3ccc(N4CCC4)c(C#N)n3)nc3[nH]c(C(F)F)nc23)cccc1-c1nnn(C)n1 [I-40] : 9.30 to 10.00

From: patent US10647713B2
